Test System: Cannabinoid receptor 1 (Rattus norvegicus, UniProt P20272)
Sequence (P20272 whole entry): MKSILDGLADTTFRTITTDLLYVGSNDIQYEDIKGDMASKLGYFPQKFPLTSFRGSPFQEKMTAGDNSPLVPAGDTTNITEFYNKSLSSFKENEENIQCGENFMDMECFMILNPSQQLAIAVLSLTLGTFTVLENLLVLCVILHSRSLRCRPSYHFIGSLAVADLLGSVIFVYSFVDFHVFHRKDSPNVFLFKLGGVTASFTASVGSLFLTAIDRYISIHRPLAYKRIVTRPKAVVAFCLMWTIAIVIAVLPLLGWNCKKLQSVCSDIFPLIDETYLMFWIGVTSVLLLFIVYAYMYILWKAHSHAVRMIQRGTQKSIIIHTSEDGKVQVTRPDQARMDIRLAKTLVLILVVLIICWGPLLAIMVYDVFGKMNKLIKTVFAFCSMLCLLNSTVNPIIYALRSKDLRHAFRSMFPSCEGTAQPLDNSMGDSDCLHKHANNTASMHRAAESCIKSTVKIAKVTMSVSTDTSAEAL
Procedure Text: Displacement of [3H][…] from CB1 receptor in Rattus norvegicus (rat) cerebellum homogenate after 2 hr by scintillation counting
Assay type: tissue-based
Applied Conditions: read-out: Ki
The reader will find reported log10(Ki) values listed item by item below.
Please be aware that the numbers have been log10-transformed from Ki in µM.

Examples from the recorded data:
{"columns": ["Smiles Entry", "Test System", "log10(Ki)"],
 "data": [
  ["OCCn1nc(-c2ccc(Cl)cc2)c(-c2ccc(Cl)cc2Cl)n1", "Cannabinoid receptor 1 (Rattus norvegicus, UniProt P20272)", -0.18],
  ["ClCCn1nc(-c2ccc(Cl)cc2)c(-c2ccc(Cl)cc2Cl)n1", "Cannabinoid receptor 1 (Rattus norvegicus, UniProt P20272)", -1.10],
  ["FCCn1nc(-c2ccc(Cl)cc2)c(-c2ccc(Cl)cc2Cl)n1", "Cannabinoid receptor 1 (Rattus norvegicus, UniProt P20272)", -1.10],
  ["COC(=O)CCn1nc(-c2ccc(Cl)cc2)c(-c2ccc(Cl)cc2Cl)n1", "Cannabinoid receptor 1 (Rattus norvegicus, UniProt P20272)", 0.37],
  ["OCCn1nnc(-c2ccc(Cl)cc2Cl)c1-c1ccc(Cl)cc1", "Cannabinoid receptor 1 (Rattus norvegicus, UniProt P20272)", -0.79],
  ["FCCn1nnc(-c2ccc(Cl)cc2Cl)c1-c1ccc(Cl)cc1", "Cannabinoid receptor 1 (Rattus norvegicus, UniProt P20272)", -0.38],
  ["Clc1ccc(-c2nn(Cc3ccccc3)nc2-c2ccc(Cl)cc2Cl)cc1", "Cannabinoid receptor 1 (Rattus norvegicus, UniProt P20272)", -0.64],
  ["N#CCn1nc(-c2ccc(Cl)cc2)c(-c2ccc(Cl)cc2Cl)n1", "Cannabinoid receptor 1 (Rattus norvegicus, UniProt P20272)", -0.63]
]}

Challenge: Param item = `Clc1ccc(-c2c(-c3ccc(Cl)cc3Cl)nnn2Cc2ccccc2)cc1` ; retrieve measured log10(Ki).
Response given: -0.73

Challenge: // repeat for `COC(=O)Cn1nnc(-c2ccc(Cl)cc2Cl)c1-c1ccc(Cl)cc1` and report
Response given: -0.61

Challenge: Follow-up item: `COC(=O)Cn1nc(-c2ccc(Cl)cc2)c(-c2ccc(Cl)cc2Cl)n1`
Response given: -0.07

Challenge: Please do the same for `CCCn1nnc(-c2ccc(Cl)cc2Cl)c1-c1ccc(Cl)cc1` as well.
Response given: -0.82
